Target: ABCC4 (Homo sapiens)
Sequence (O15439 whole entry): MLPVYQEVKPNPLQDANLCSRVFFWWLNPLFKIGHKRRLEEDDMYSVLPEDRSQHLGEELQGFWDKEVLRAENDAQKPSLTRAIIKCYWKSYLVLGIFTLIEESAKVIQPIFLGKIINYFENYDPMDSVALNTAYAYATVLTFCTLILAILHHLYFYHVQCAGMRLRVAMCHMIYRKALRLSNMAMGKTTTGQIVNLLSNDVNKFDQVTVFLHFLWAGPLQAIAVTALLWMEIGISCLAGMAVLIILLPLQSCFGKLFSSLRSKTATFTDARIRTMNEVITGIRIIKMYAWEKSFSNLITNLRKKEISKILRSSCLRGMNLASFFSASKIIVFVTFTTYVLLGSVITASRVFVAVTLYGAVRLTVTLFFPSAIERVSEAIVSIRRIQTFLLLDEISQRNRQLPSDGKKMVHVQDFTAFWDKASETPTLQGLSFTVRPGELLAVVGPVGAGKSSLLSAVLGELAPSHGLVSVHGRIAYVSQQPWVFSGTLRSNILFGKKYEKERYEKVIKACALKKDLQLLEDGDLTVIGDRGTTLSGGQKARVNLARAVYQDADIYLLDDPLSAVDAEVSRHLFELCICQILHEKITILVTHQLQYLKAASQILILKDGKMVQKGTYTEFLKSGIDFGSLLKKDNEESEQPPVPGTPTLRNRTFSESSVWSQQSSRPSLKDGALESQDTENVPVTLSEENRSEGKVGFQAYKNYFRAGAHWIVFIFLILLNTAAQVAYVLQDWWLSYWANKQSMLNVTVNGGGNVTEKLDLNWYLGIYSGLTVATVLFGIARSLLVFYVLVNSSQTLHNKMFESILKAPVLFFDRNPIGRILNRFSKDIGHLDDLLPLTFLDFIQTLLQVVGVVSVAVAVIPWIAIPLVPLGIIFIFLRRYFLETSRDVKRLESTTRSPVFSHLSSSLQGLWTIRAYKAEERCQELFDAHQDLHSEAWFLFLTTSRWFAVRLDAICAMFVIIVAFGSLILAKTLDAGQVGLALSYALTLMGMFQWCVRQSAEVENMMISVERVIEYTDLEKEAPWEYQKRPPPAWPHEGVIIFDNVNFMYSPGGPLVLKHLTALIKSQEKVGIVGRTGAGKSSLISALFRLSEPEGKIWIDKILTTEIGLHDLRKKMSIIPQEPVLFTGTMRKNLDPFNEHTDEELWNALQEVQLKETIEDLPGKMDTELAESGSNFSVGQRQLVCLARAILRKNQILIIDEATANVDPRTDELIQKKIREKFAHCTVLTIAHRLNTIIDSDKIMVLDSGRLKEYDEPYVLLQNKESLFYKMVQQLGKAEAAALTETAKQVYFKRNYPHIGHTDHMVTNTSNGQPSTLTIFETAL
Assay: biochemical
Assay type: biochemical
Settings: 32°C; cAMP-efflux, inside-out vesicles; read-out: ABCC4 Ki
testReadout: Ki (µM)
# unit: µM | format: bare number

Inquiry: Suppose we examine the compound Nc1cc(-c2ccncc2)c[nH]c1=O ; what Ki value has been reported?
Reply text: 3.33

---

Biological target: ABCC4 (Homo sapiens)
Assay: biochemical
Assay type: biochemical
Details: 32°C; cAMP-efflux, inside-out vesicles, 20 µM 3H-cAMP, 60 min; read-out: ABCC4 IC50
testReadout: IC50 (µM)
Give the value, in units of µM, as a plain number.

Inquiry: Item Nc1cc(-c2ccncc2)c[nH]c1=O [Amrinone] has what recorded IC50?
Reply text: 5.49
